Source listed as ChEMBL document CHEMBL3758084.

assay_details: Permeability of compound across apical to basal compartment in PBS at pH 7.4 at 10 uM after 4 hrs by PAMPA
Format: ADME
study_conditions: pH 7.4, 4 h
Each entry below carries its recorded permeability.
Numeric only. Scale: %

| smiles_repr | value_measured |
| --- | --- |
| Cc1c(C(=O)NC2CCN(S(=O)(=O)CCC(F)(F)F)CC2)nn(-c2ccc(Cl)cc2Cl)c1-c1ccc(Cl)cc1 | 0.1 |

Recorded result, `Cc1c(C(=O)NC2CCN(C(=O)C3CCCC3)CC2)nn(-c2ccc(Cl)cc2Cl)c1-c1ccc(Cl)cc1` , permeability: 0.2

Recorded result, `CCS(=O)(=O)N1CCC(NC(=O)c2nn(-c3ccc(Cl)cc3Cl)c(-c3ccc(Cl)cc3)c2C)CC1` , permeability: 0.05
